protocol_details: E. coli acrAB mutant growth effects, primary screen, E. coli filamentation inducers, strain DRC39, OD650, 24 h (AID 1178);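 also: growth measured as culture turbidity by optical density at 650 nm; test concentration not given here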
conditions_used: higher = more signal, called active from +8 up or from −8 down
Lab note: compare z-score against -0.1. Equal or greater, write rule met. Smaller, write rule not met.

compound: C=C(C(=O)CC[C@H](OC(=O)c1ccccc1-c1ccccc1C(=O)O)c1ccccc1OCCO)C(C)C
category: rule met

### Prompt z-score >= -0.1 for CO[C@H]1O[C@H](CO)[C@@H](OC(=O)Nc2cccc(F)c2)[C@H](OC(=O)Nc2ccccc2-c2ccccc2)[C@H]1OC(=O)Nc1ccccc1-c1ccccc1 ?
### Response rule not met

### Prompt z-score >= -0.1 for CN1C(=O)C2C=CC(C(O)c3ccc(F)cc3)N(NC(=O)OC(C)(C)C)C2C1=O (stereo not given) ?
### Response rule not met

### Prompt z-score >= -0.1 for COC(=O)C1=CC(CCCO)=CC(C)N(Cc2cccc(OC(F)(F)F)c2)C=C1C(=O)OC (stereo not given) ?
### Response rule met

### Prompt z-score >= -0.1 for Cc1ccc(S[C@]2(C(=O)NC(C)C)CC(=O)N(C(C)C)[C@@H]2c2ccc(CO)cc2I)cc1 ?
### Response rule met

### Prompt z-score >= -0.1 for C=CCNC(=O)[C@H]1[C@@H]2C(=O)O[C@@H](c3ccccc3)[C@@H](c3ccccc3)N2[C@@H](c2ccc(OCCO)cc2)[C@]12C(=O)Nc1ccc(C#CCNC(N)=O)cc12 ?
### Response rule not met

### Prompt z-score >= -0.1 for NC(=O)[C@H]1[C@@H]2C(=O)O[C@@H](c3ccccc3)[C@@H](c3ccccc3)N2[C@@H](c2ccc(O)cc2)[C@]12C(=O)Nc1ccccc12 ?
### Response rule not met

### Prompt z-score >= -0.1 for CC1CC/C=C\[C@H]2OC34C=CCN(C(C)(C)C)C(=O)[C@H]3N(C(CO)C(C)C)C(=O)[C@@H]4C2C(=O)O1 (stereo not given in full) ?
### Response rule met

### Prompt z-score >= -0.1 for CC(C)C[C@@H]1NC(=O)[C@@H]2C[C@H](C(=O)NCCCCCC[N+](C)(C)C)[C@H](c3cccc(OCCO)c3)N2C1=O ?
### Response rule not met

### Prompt z-score >= -0.1 for CC(C)N1CC=CC23O[C@@H]4/C=C\CCCOC(=O)C4[C@H]2C(=O)N(CCCCCCO)[C@@H]3C1=O (stereo not given in full) ?
### Response rule met

### Prompt z-score >= -0.1 for COCCOC(=O)N1C(=O)[C@@]2(c3cc(C#CCNC(N)=O)ccc31)[C@H](c1ccc(O)cc1)N1[C@H](c3ccccc3)[C@H](c3ccccc3)OC(=O)[C@H]1[C@@H]2C(=O)N1CCN(c2ncccn2)CC1 ?
### Response rule not met

====

protocol_details: small-molecule microarray binders of probe aLefty2, primary screen, biochemical, biotinylated probe, 635/667 nm fluorescence (AID 1094);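 also: score merges spot fluorescence near 667 nm with spot signal-to-noise ratio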
conditions_used: higher = more signal
Catalogue of composite z-score readings, one per entry.
Form: value (number only, do not type unit).

Observe how each entry below is paired with its result.
smiles_entry: C=C(COC)/C(=C/C[C@H](OC(C)=O)c1cccc(OCCO)c1)c1cnc2ccccc2c1
composite z-score: -0.0415

smiles_entry: O=c1cccc(-c2ccco2)o1
composite z-score: -0.0963

smiles_entry: COC(=O)[C@@]1(Cc2ccc(OC)cc2)[C@H]2c3cc(C(=O)N4CCCC4)n(Cc4cc(C)n(C)n4)c3C[C@H]2CN1C(=O)c1ccccc1
composite z-score: 0.724

### Prompt Read off the recorded composite z-score for [N-]=[N+]=NCc1ccccc1[C@H]1OC(c2ccc(OCCCO)cc2)=N[C@@]1(CCS(=O)(=O)c1ccccc1)C(=O)NCc1ccccc1
### Response 0.455

Measured values drawn from PubChem BioAssay for this set.
